Reported abundance fitness values for the following variants.
B1: Androgen receptor, residues 557 to 632; numbered along this chain, P10275 (parent)
chain: QKTCLICGDEASGCHYGALTCGSCKVFFKRAAEGKQKYLCASRNDCTIDKFRRKNCPSCRLRKCYEAGMTLGARKL

- Variants of: B1
- Test method notes: abundance fitness (aPCA) (normalised: wild type 0, dead -1); higher = more abundant; growth selection in yeast, the domain comes from the species named
- Assay conditions: Homo sapiens

QKTCLICGDEASGCHYGALTCASCKVFFKRAAEGKQKYLCASRNDCTIDKFRRKNCPSCRLRKCYEAGMTLGARKL [G22A]    -0.025
QKTCLICGDEASGCHYGALTCGSCKLFFKRAAEGKQKYLCASRNDCTIDKFRRKNCPSCRLRKCYEAGMTLGARKL [V26L]    0.008
QKTCLICGDEASGCHYGALTCGSTKVFFKRAAEGKQKYLCASRNDCTIDKFRRKNCPSCRLRKCYEAGMTLGARKL [C24T]    -0.902
QKTCLICGDEASGCHYGALTCGSCKVFFKRASEGKQKYLCASRNDCTIDKFRRKNCPSCRLRKCYEAGMTLGARKL [A32S]    -0.052
QKTCLICGDEASGCHYGALTCGSCKVFFKEAAEGKQKYLCASRNDCTIDKFRRKNCPSCRLRKCYEAGMTLGARKL [R30E]    0.019

// query abundance fitness value for entry QKTCLICGDEASGCHYGALTCGSCAVFFKRAAEGKQKYLCASRNDCTIDKFRRKNCPSCRLRKCYEAGMTLGARKL [K25A] 0.026

Query (variant): QKTCLICGDEASGCHYGALTCGSCKVFFKRAHEGKQKYLCASRNDCTIDKFRRKNCPSCRLRKCYEAGMTLGARKL [A32H] ; field requested: abundance fitness -0.233

Query (variant): QKTCLICGDEASGCHYGALTCGSCKVFFKRAAEGKQKYLCASRNVCTIDKFRRKNCPSCRLRKCYEAGMTLGARKL [D45V] ; field requested: abundance fitness -0.12

Reported abundance fitness for QKTCLICGDEASGCHYGALTCGSCKVFFKQAAEGKQKYLCASRNDCTIDKFRRKNCPSCRLRKCYEAGMTLGARKL [R30Q] : what is it? -0.029

abundance fitness for QKTCLICGDEASGCHYGALTCGICKVFFKRAAEGKQKYLCASRNDCTIDKFRRKNCPSCRLRKCYEAGMTLGARKL [S23I] ? -0.836
